# key: entry, value: IC50
Molecular target: human JAK3 (a.a. 781-1124) (Homo sapiens)
Construct: JAK3 (a.a. 781-1124); His tag (N); made in house; host or cells: insect cells (baculovirus)
Sequence (P52333 781-1124): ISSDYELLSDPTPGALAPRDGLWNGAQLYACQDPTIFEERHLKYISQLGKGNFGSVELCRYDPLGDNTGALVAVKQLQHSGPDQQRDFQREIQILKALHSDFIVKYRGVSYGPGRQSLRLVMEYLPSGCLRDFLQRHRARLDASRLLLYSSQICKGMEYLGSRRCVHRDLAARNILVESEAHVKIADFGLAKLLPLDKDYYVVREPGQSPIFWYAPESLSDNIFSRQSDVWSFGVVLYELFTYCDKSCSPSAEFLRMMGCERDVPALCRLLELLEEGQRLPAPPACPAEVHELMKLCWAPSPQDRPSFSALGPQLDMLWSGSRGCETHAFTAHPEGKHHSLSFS
Experiment: In vitro JAK kinase assay (HTRF, phosphorylation of a biotinylated peptide), JAK3
Format: biochemical
Conditions: method AA1 (3 μM ATP) or AA2 (1000 μM ATP), not stated per value
quantity_name: IC50

O=C(CC1CCN(C(=O)c2cccnc2)CC1)Nc1ccc2cc1CCc1cncc(c1)Nc1ncc(Cl)c(n1)N2 [Example A188, tris(trifluoroacetate)] :: > 200 nM
CC(C)c1cc(C(=O)N2CCC(CC(=O)Nc3ccc4cc3CCc3cncc(c3)Nc3ncc(Cl)c(n3)N4)CC2)no1 [Example A214, bis(trifluoroacetate)] :: > 200 nM
COc1cccc(NC(=O)N2CCC(CC(=O)Nc3ccc4cc3CCc3cncc(c3)Nc3ncc(Cl)c(n3)N4)CC2)c1 [Example A153, bis(trifluoroacetate)] :: > 100 nM
N#Cc1ccc(C(=O)N2CCC(CC(=O)Nc3ccc4cc3CCc3cncc(c3)Nc3ncc(Cl)c(n3)N4)CC2)cc1 [Example A190, bis(trifluoroacetate)] :: > 200 nM
O=C(CC1CCN(S(=O)(=O)c2ccccc2)CC1)Nc1ccc2cc1CCc1cncc(c1)Nc1ncc(Cl)c(n1)N2 [Example A195, bis(trifluoroacetate)] :: > 200 nM
O=C(CC1CCN(C(=O)NCc2ccccc2)CC1)Nc1ccc2cc1CCc1cncc(c1)Nc1ncc(Cl)c(n1)N2 [Example A155, bis(trifluoroacetate)] :: > 100 nM
